Molecular target: KRas wild type (Homo sapiens, UniProt P01116)
Experiment: Ras GTP binding domain inhibition assay (labeled-GTP competition, cell-free)
Design: made in house
Settings: with SOS, read-out: KRas wild type + SOS: % inh.
Reported inhibition at 20 µM by item:

{"columns": ["compound", "inhibition at 20 µM"],
 "data": [
  ["CO[C@H]1CC[C@@H](Nc2nc(C(=O)NC(C)C)nc3sccc23)C1 (racemic)", "1 to 25%"],
  ["CO[C@H]1CC[C@@H](Nc2nc(C(=O)Nc3ccccc3)nc3sccc23)C1 (racemic)", "0%"],
  ["CO[C@H]1CC[C@@H](Nc2nc(-c3nccn3C)nc3sc(-c4ccn(C(C)C)n4)c(-c4ccccc4)c23)C1", "76 to 100%"],
  ["COCC1CCN(c2nc(-c3nccn3C)nc3sc(-c4ccn(C(C)C)n4)c(C(F)(F)F)c23)C1 (racemic)", "76 to 100%"],
  ["COCCn1cnc(-c2nc(O)c3scc(-c4ccccn4)c3n2)c1", "51 to 75%"],
  ["Cc1c(-c2ccn(C(C)C)n2)sc2nc(-c3nccn3C)nc(NCCc3cn(C)cn3)c12", "76 to 100%"],
  ["COC[C@@H]1CC[C@@H]1CNc1nc(-c2nccn2C)nc2sc(-c3ccn(C(C)C)n3)c(C)c12 (racemic)", "26 to 50%"]
]}

---

Biological target: KRas G12D mutant (Homo sapiens, UniProt P01116, G12D)
Construct: made in house
Assay: Ras GTP binding domain inhibition assay (labeled-GTP competition, cell-free)
Conditions: without SOS, read-out: KRas G12D mutant: % inh.
Reported inhibition at 20 µM by item:

{"columns": ["molecule", "inhibition at 20 µM"],
 "data": [
  ["CO[C@H]1CC[C@@H](Nc2nc(C(=O)Nc3ccccc3)nc3sccc23)C1 (racemic)", "0%"],
  ["CO[C@H]1CCCN(c2nc(-c3nccn3C)nc3sc(-c4ccn(C(C)C)n4)c(C)c23)C1", "0%"],
  ["COCC1CN(c2nc(-c3nccn3C)nc3sc(-c4ccn(C(C)C)n4)c(C)c23)CCO1 (racemic)", "76 to 100%"],
  ["Cn1nccc1-c1nc(O)c2scc(-c3ccccn3)c2n1", "1 to 25%"],
  ["Cc1c(-c2ccn(C(C)C)n2)sc2nc(-c3nccn3C)nc(NCc3ncc[nH]3)c12", "1 to 25%"],
  ["COCCCn1ccnc1-c1nc(O)c2scc(-c3ccccn3)c2n1", "51 to 75%"],
  ["Oc1nc(-c2ccncn2)nc2c(-c3ccccn3)csc12", "51 to 75%"],
  ["COC[C@@H]1CC[C@@H]1CNc1nc(-c2nccn2C)nc2sc(-c3ccn(C(C)C)n3)c(C)c12 (racemic)", "51 to 75%"],
  ["CO[C@H]1CC[C@@H](Nc2nc(-c3ccccn3)nc3sc(-c4ccn(C(C)C)n4)c(C)c23)C1 (racemic)", "51 to 75%"],
  ["O=C(c1nc(O)c2scc(-c3ccccn3)c2n1)N1CCCC1", "26 to 50%"],
  ["CO[C@H]1C[C@H](Nc2nc(-c3nccn3C)nc3sc(-c4ccn(C(C)C)n4)c(C)c23)C[C@H]1OC", "76 to 100%"],
  ["CO[C@H]1C[C@@H](Nc2nc(-c3nccn3C)nc3sc(-c4cn(C)cn4)c(-c4ccccc4)c23)C1", "51 to 75%"],
  ["COCC1CCN(c2nc(-c3nccn3C)nc3sc(-c4ccn(C(C)C)n4)c(-c4ccccc4)c23)C1 (racemic)", "51 to 75%"],
  ["Oc1nc(-c2ccccn2)nc2c(-c3ncccc3F)csc12", "51 to 75%"],
  ["CO[C@H]1CC[C@@H](Nc2nc(-c3nccn3C)nc3sc(-c4ccn(C(C)C)n4)c(C)c23)C1", "26 to 50%"],
  ["Cn1ccnc1-c1nc(O)c2scc(-c3ncccc3F)c2n1", "51 to 75%"]
]}

---

Molecular target: K-Ras (Q61H) (Homo sapiens, UniProt P01116, Q61H)
Assay: Scintillation Proximity Assay (SPA) GTP affinity
Conditions: read-out: SPA GTP affinity for binding domain
pKd: −log10 of the molar value.

{"columns": ["givenSmiles", "pKd"],
 "data": [
  ["Nc1nc2c(ncn2[C@@H]2O[C@H](COP(=O)(O)OP(=O)(O)OP(=O)(O)O)[C@@H](O)[C@H]2O)c(=O)[nH]1", 6.93]
]}

---

Target: Rac-1 and Rho-A
Assay: SPA and MST studies, GTP affinity for Rho subfamily members
Details: read-out: affinity of GTP for the binding domain of Rac-1 and Rho-A members of the Rho subfamily
pKd: −log10 of the molar value.

{"columns": ["compound", "pKd"],
 "data": [
  ["Nc1nc2c(ncn2[C@@H]2O[C@H](COP(=O)(O)OP(=O)(O)OP(=O)(O)O)[C@@H](O)[C@H]2O)c(=O)[nH]1 [GTP]", "6.77 to 6.92"]
]}

---

Target: KRas G12C mutant (Homo sapiens, UniProt P01116, G12C)
Construct: made in house
Assay: Ras GTP binding domain inhibition assay (labeled-GTP competition, cell-free)
Settings: with SOS, read-out: KRas G12C mutant + SOS: % inh.
Reported inhibition at 20 µM by item:

{"columns": ["molecule", "target", "inhibition at 20 µM"],
 "data": [
  ["O=C(Nc1ccccc1)c1nc(O)c2scc(-c3ccccn3)c2n1", "KRas G12C mutant (Homo sapiens, UniProt P01116, G12C)", "0%"],
  ["COCCn1cnc(-c2nc(O)c3scc(-c4ccccn4)c3n2)c1", "KRas G12C mutant (Homo sapiens, UniProt P01116, G12C)", "51 to 75%"],
  ["Oc1nc(-c2cccnc2)nc2c(-c3ccccn3)csc12", "KRas G12C mutant (Homo sapiens, UniProt P01116, G12C)", "0%"],
  ["Cc1c(-c2ccn(C(C)C)n2)sc2nc(-c3nccn3C)nc(NCCC3CCC(=O)N3)c12 (racemic)", "KRas G12C mutant (Homo sapiens, UniProt P01116, G12C)", "76 to 100%"],
  ["Cc1c(-c2ccn(C(C)C)n2)sc2nc(-c3nccn3C)nc(NCc3n[nH]c(=O)n3C)c12", "KRas G12C mutant (Homo sapiens, UniProt P01116, G12C)", "51 to 75%"],
  ["CO[C@H]1C[C@H](Nc2nc(-c3nccn3C)nc3sc(-c4ccn(C(C)C)n4)c(C)c23)C[C@H]1OC", "KRas G12C mutant (Homo sapiens, UniProt P01116, G12C)", "76 to 100%"],
  ["COc1ccn2c(-c3nc(O)c4scc(-c5ccccn5)c4n3)ncc2c1", "KRas G12C mutant (Homo sapiens, UniProt P01116, G12C)", "1 to 25%"],
  ["CCOCCn1ccnc1-c1nc(O)c2scc(-c3ccccn3)c2n1", "KRas G12C mutant (Homo sapiens, UniProt P01116, G12C)", "51 to 75%"],
  ["Cc1c(-c2ccn(C(C)C)n2)sc2nc(-c3nccn3C)nc(N3CCC(COC(C)C)C3)c12 (racemic)", "KRas G12C mutant (Homo sapiens, UniProt P01116, G12C)", "51 to 75%"],
  ["Oc1nc(-c2ccncn2)nc2c(-c3ccccn3)csc12", "KRas G12C mutant (Homo sapiens, UniProt P01116, G12C)", "26 to 50%"],
  ["O=C(Nc1ccccn1)c1nc(O)c2scc(-c3ccccn3)c2n1", "KRas G12C mutant (Homo sapiens, UniProt P01116, G12C)", "1 to 25%"],
  ["COc1ccc2cnc(-c3nc(O)c4scc(-c5ccccn5)c4n3)n2c1", "KRas G12C mutant (Homo sapiens, UniProt P01116, G12C)", "26 to 50%"],
  ["CO[C@H]1CC[C@@H](Nc2nc(C(=O)N3CCCC3)nc3sccc23)C1 (racemic)", "KRas G12C mutant (Homo sapiens, UniProt P01116, G12C)", "0%"],
  ["Cc1c(-c2ccn(C(C)C)n2)sc2nc(-c3nccn3C)nc(NC[C@H]3CCC(=O)N3)c12", "KRas G12C mutant (Homo sapiens, UniProt P01116, G12C)", "26 to 50%"],
  ["Cc1c(-c2ccn(C(C)C)n2)sc2nc(-c3nccn3C)nc(NCc3ncc[nH]3)c12", "KRas G12C mutant (Homo sapiens, UniProt P01116, G12C)", "26 to 50%"],
  ["Cc1c(-c2ccn(C(C)C)n2)sc2nc(-c3nccn3C)nc(NCc3c[nH]cn3)c12", "KRas G12C mutant (Homo sapiens, UniProt P01116, G12C)", "76 to 100%"],
  ["COC1CCCN(c2nc(-c3ccccn3)nc3sc(-c4ccn(C(C)C)n4)c(C)c23)C1 (racemic)", "KRas G12C mutant (Homo sapiens, UniProt P01116, G12C)", "26 to 50%"]
]}
